Target protein (sequence): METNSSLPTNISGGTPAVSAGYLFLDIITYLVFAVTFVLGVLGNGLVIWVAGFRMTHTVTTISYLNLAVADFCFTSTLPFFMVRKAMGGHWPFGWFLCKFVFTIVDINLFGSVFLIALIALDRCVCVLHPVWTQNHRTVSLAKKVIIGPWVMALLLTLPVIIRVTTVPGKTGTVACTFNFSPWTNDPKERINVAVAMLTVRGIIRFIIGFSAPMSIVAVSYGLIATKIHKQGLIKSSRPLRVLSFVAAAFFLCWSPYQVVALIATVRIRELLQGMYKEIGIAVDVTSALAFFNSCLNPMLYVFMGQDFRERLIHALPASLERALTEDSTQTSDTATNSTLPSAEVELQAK
endpoint: Ki (µM)

Before answering, review these 7 worked examples.
[
  {
    "molecule": "CCOc1cccc(C(=O)C2C(=O)C(=O)N(CCOC)C2c2ccc(C)o2)c1 (stereo not given)",
    "Ki, µM": 8.8
  },
  {
    "molecule": "COCCCN1C(=O)C(=O)C(C(=O)c2ccco2)C1c1ccccc1 (stereo not given)",
    "Ki, µM": 9.5
  },
  {
    "molecule": "COc1ccccc1C1C(C(=O)c2ccccc2)C(=O)C(=O)N1CC(C)O (stereo not given)",
    "Ki, µM": 16.1
  },
  {
    "molecule": "CCOc1ccc(C2C(C(=O)c3cccs3)C(=O)C(=O)N2CCCn2ccnc2)cc1 (stereo not given)",
    "Ki, µM": 37.4
  },
  {
    "molecule": "O=C1C(=O)N(CCCN2CCOCC2)C(c2ccccn2)C1C(=O)c1cc2ccccc2o1 (stereo not given)",
    "Ki, µM": 39.7
  },
  {
    "molecule": "COC(=O)c1[nH]c(C)c(C(=O)C2C(=O)C(=O)N(CCN3CCOCC3)C2c2cccs2)c1C (stereo not given)",
    "Ki, µM": 3.3
  },
  {
    "molecule": "COCCN1C(=O)C(=O)C(C(=O)c2ccco2)C1c1cccc(Oc2ccccc2)c1 (stereo not given)",
    "Ki, µM": 36.7
  }
]

1. CCCOc1ccc(C2C(C(=O)c3ccc(C)o3)C(=O)C(=O)N2Cc2cccnc2)cc1 (stereo not given)
2. C=CCOc1ccc(C2C(C(=O)c3ccco3)C(=O)C(=O)N2Cc2cccnc2)cc1 (stereo not given)
Please state the entry with greater Ki among 1 and 2 . Choose, then provide that item's label.
1

* * *

tested_target: fMet-Leu-Phe receptor (Homo sapiens, UniProt P21462)
Sequence (P21462 whole entry): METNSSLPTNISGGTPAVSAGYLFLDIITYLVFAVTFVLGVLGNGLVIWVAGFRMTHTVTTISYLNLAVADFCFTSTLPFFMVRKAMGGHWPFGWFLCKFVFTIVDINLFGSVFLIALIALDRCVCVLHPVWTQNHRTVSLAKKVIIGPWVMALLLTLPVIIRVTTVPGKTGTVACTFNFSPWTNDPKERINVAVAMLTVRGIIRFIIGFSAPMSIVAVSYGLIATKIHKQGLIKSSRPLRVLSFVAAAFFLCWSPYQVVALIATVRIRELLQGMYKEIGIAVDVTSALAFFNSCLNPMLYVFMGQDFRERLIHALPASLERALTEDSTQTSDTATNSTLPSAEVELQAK
endpoint: Ki (µM)

Before answering, review these 3 worked examples.
[
  {
    "molecule": "CCOc1ccc(C2C(C(=O)c3ccco3)C(=O)C(=O)N2Cc2cccnc2)cc1 (centres undefined)",
    "tested_target": "fMet-Leu-Phe receptor (Homo sapiens, UniProt P21462)",
    "Ki (µM)": 10
  },
  {
    "molecule": "COc1ccc(OC)c(C2C(C(=O)c3ccccc3)C(=O)C(=O)N2Cc2ccco2)c1 (centres undefined)",
    "tested_target": "fMet-Leu-Phe receptor (Homo sapiens, UniProt P21462)",
    "Ki (µM)": 2.2
  },
  {
    "molecule": "COC(=O)c1ccc(C2C(C(=O)c3ccc(OC)cc3)C(=O)C(=O)N2Cc2ccco2)cc1 (centres undefined)",
    "tested_target": "fMet-Leu-Phe receptor (Homo sapiens, UniProt P21462)",
    "Ki (µM)": 28.1
  }
]

P. O=c1c(C23CC4CC(CC(C4)C2)C3)c(O)n(-c2ccccc2)n1-c1ccccc1
Q. Cc1ccc(C2C(C(=O)c3cnn(-c4ccccc4)c3C)C(=O)C(=O)N2CCN2CCOCC2)o1 (centres undefined)
Please compare: P and Q . Report which one has the smaller Ki value. Choose, then provide that item's label.
P

* * *

tested_target: fMet-Leu-Phe receptor (Homo sapiens, UniProt P21462)
Sequence (P21462 whole entry): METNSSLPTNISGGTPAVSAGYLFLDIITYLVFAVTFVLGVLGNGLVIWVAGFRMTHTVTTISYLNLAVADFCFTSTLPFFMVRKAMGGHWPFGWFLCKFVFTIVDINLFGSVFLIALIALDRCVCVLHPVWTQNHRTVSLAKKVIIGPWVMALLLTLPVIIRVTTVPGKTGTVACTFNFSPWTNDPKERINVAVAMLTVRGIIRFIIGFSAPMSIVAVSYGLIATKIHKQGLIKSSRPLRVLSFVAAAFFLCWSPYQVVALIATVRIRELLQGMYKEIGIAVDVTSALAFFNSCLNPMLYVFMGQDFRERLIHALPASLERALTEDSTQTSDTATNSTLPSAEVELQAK
endpoint: Ki (µM)

P. C=CCOc1ccc(C2C(C(=O)c3cccs3)C(=O)C(=O)N2c2nnc(C)s2)cc1 (stereo not given)
Q. COc1ccccc1C1C(C(=O)c2ccccc2)C(=O)C(=O)N1CC(C)C (stereo not given)
Please state the entry with greater Ki among P and Q . Choose, then provide that item's label.
P
(P: 26.5 µM, Q: 3.6 µM)

* * *

tested_target: UniProt:P21462
Sequence (P21462 whole entry): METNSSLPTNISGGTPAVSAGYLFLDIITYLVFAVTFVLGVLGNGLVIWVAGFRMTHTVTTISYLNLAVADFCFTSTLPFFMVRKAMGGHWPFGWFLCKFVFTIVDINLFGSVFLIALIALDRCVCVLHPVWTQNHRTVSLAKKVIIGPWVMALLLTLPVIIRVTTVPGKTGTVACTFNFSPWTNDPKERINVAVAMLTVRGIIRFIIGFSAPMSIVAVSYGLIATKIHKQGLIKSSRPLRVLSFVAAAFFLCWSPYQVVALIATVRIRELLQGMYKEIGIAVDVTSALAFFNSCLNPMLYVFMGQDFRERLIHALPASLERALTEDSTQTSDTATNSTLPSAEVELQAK
Listing of entries alongside the reported Ki.

[
  {
    "molecule": "COc1cccc2cc(C(=O)C3C(=O)C(=O)N(Cc4ccco4)C3c3cccnc3)oc12 (stereo not drawn)",
    "Ki": "> 43.7 µM"
  },
  {
    "molecule": "Cc1ccc(C(=O)C2C(=O)C(=O)N(CCCn3ccnc3)C2c2ccc(OC(C)C)cc2)o1 (stereo not drawn)",
    "Ki": "> 43.7 µM"
  }
]

From here, focus on the item given below.
Entry COCCCN1C(=O)C(=O)C(C(=O)c2ccc3c(c2)CC(C)O3)C1c1cccnc1 (stereo not drawn) , system UniProt:P21462: what Ki was measured?
> 43.7 µM
